B1: TRIM29 (parent)
chain: RKCPVHGKTMELFCQTDQTCICYL

Variants of: B1
TEST DETAILS: protein stability index of a GFP-peptide fusion (GPS, HEK-293T) (PSI 1-6); higher = more stable;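 also: lentivirally expressed fusions sorted by FACS into six bins by GFP to DsRed ratio, PSI derived from sequencing read proportions per bin multiplied by bin number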
CONDITION: c terminus: a fixed tail appended
Classify by protein stability index. Ranges: low end = under 2, middle = from 2 up to 3, high end = 3 and over

L12S | middle
T16D | middle
Q15M | middle

Task: Would you mind sorting D17M into the appropriate category?
Result: low end
